The measurements presented in this section are drawn from the nanobody polyreactivity screen of Harvey et al. (2022).

experiment: yeast display, Sf9 membrane polyspecificity reagent, FACS + sequencing; frameworks hold sequencing errors
assayReadout: polyreactivity (PSR sort gate)

Reference set (4 entries):
# sequenceString, observedResult
records = [
    ("QVHLVESGGGLVQAGGSLRLSCAAYGRIFPLYTMGWYRQAPGKEREFVAAISRTGGRTYYADSVKGRFTISRDNAKNTVYLQMNSLKPEDTAVYYCAAPYFGKRQIREYYWGQGTQVTVSS", "high polyreactivity"),
    ("QVQLVESGGGLVQAGGSLRLSCAASGFTFGLYGMGWYRQAPGKERELVAAISSSGGDTYYADSVKGRFTISRDNAKNTVYLQMNSLKPEDTAVYYCAATADWATHDYWGQGTQVTVSS", "low polyreactivity"),
    ("QDQLVESGGGLVQAGGSLRLSCAASGSIFQYYAMGWYRQAPGKERELVAAISYSGDGTFYADSVKGRFTISRDNAKNSVYLQMNSLKPVDTAVYYCAASSTGYGGSTYYYWGQGTQVTVSS", "low polyreactivity"),
    ("QVQLVESGVGLVQAGGSLRLICAASGFTFAKYAMGWYRQAPGKERELVAAISRSAGSTYYADSVKGRFTISRDYAKNTVYLQMNSLIPDDTAVYYCAADPLIYDDYYWGQGSQVTVSS", "high polyreactivity"),
]

Let's switch to this sequence now.
Problem: I'd like to know its polyreactivity (PSR sort gate). The sequence in question is QVQLVESGGGLVQAGGSLRLSCAASGITFRWYAMGWYRQAPGKERELVAAIRSGSSTYYADSVKGRFTISRDNAKNTVYLQMNSLKPEDPAVYYCNARPWYSWGVDYDYWGQGTQVTVSS
Solution: low polyreactivity
